Sourced from ChEMBL document CHEMBL1121452

Collected ED50 values appear next to each entry.
# Species on record: Mus musculus
# ASSAY_NAME: Evaluated for antagonistic activity on nicotine-induced tonic-extensor convulsions (TE) in CF1 mice
# Type: functional
MEASURED_ATTRIBUTE: ED50

- COMPOUND: "CCOC(=O)C1N=C(c2ccccc2)c2cc(Cl)ccc2-n2c(C)nnc21 (centres undefined)"
  RECORDED_RESULT: "50 mg/kg"
- COMPOUND: "CCOC(=O)C1(N)N=C(c2ccccc2)c2cc(Cl)ccc2-n2c(C)nnc21 (centres undefined)"
  RECORDED_RESULT: "3.1 mg/kg"
- COMPOUND: "Cc1nnc2n1-c1ccc(Cl)cc1C(c1ccccc1)N=C2N (centres undefined)"
  RECORDED_RESULT: "40 mg/kg"
- COMPOUND: "CCOC(=O)C1(C)N=C(c2ccccc2)c2cc(Cl)ccc2-n2c(C)nnc21 (centres undefined)"
  RECORDED_RESULT: "16 mg/kg"
- COMPOUND: "Cc1nnc2n1-c1ccc(Cl)cc1C(c1ccccc1)NC2=O (centres undefined)"
  RECORDED_RESULT: "> 100 mg/kg"
- COMPOUND: "Cc1nnc2n1-c1ccc(Cl)cc1C(c1ccccc1)=NC2CC(=O)O (centres undefined)"
  RECORDED_RESULT: "0.9 mg/kg"
- COMPOUND: "Cc1nnc2n1-c1ccc(Cl)cc1C(c1ccccc1)=NC2C (centres undefined)"
  RECORDED_RESULT: "0.056 mg/kg"
- COMPOUND: "Cc1nnc2n1-c1ccc(Cl)cc1C(c1ccccc1)=NC2O (centres undefined) [4-HYDROXY-ALPRAZOLAM]"
  RECORDED_RESULT: "4 mg/kg"
- COMPOUND: "Cc1nnc2n1-c1ccc(Cl)cc1C(c1ccccc1)=NC2N (centres undefined)"
  RECORDED_RESULT: "0.36 mg/kg"
